Data origin: the supplement of paper PMC10515830

Tested on: Danio rerio larvae (5 dpf)
Assay: difference in combined optomotor response to red, green and blue moving lines vs DMSO (percentage points); higher = stronger optomotor response than DMSO
Settings: 10 µM; exposure time 6 h
Where a name gives a salt, the structure may show the parent alone.
MEASUREMENT_KIND: difference

Here's what some known entries look like.
INSERT INTO measurements (compound, measurement_kind, reported) VALUES
  ('CCCCCCCC(=O)N[C@H](CN1CCCC1)[C@H](O)c1ccc2c(c1)OCCO2 [Eliglustat (hemitartrate)]', 'difference', 7.51),
  ('C[C@@H]1CCN(C(=O)CC#N)C[C@@H]1N(C)c1ncnc2[nH]ccc12', 'difference', 6.98),
  ('Cc1ccc([C@@H]2O[C@H](CO)[C@@H](O)[C@H](O)[C@H]2O)cc1Cc1ccc(-c2ccc(F)cc2)s1', 'difference', 5.53),
  ('C#C[C@]1(O)CC[C@H]2[C@@H]3CCC4=CC(=O)CC[C@@H]4[C@H]3CC[C@@]21C', 'difference', 11.2),
  ('COc1ccccc1OCC(O)CN1CCN(CC(=O)Nc2c(C)cccc2C)CC1 (stereo not drawn) [Ranolazine (hydrochloride)]', 'difference', 2.81);

Entry under review: Cc1cn([C@H]2C=C[C@@H](CO)O2)c(=O)[nH]c1=O . Reported difference? 4.85

Entry under review: CN(C)C/C=C/C(=O)Nc1cc2c(Nc3ccc(F)c(Cl)c3)ncnc2cc1O[C@H]1CCOC1 [Afatinib (maleate)] . Reported difference? 8.09

Entry under review: COc1cccc(N2CCN(C3=Nc4c(F)cccc4[C@H](CC(=O)O)N3c3cc(C(F)(F)F)ccc3OC)CC2)c1 . Reported difference? -3.3
